Source of measurements: patent US10144742B2

Subject of test: hNAMPT protein (Homo sapiens (Human))
Sequence (P43490 whole entry): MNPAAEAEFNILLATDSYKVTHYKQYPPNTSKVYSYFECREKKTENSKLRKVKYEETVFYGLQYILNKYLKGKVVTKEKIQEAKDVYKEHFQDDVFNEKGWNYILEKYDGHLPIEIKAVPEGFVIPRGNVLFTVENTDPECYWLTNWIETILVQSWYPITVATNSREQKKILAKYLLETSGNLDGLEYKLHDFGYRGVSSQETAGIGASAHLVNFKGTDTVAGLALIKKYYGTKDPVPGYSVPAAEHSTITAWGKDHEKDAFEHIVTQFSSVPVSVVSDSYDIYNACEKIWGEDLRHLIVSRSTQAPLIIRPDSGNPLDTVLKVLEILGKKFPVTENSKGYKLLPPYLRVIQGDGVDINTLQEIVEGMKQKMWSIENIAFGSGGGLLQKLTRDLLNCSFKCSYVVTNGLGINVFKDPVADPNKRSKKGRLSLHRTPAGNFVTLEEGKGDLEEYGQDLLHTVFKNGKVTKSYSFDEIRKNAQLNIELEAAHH
Test details: NAMPT enzyme assay (TR-FRET/HTRF, BodiPY ligand, anti 6His-Tb)
Format: binding
Test parameters: NAMPT IC50 range class; read-out: IC50
Excerpt: As discussed above, the invention provides compounds that are useful as inhibitors of the enzyme NAMPT. The NAMPT inhibition of a compound of the invention can be measured using a variety of methods known in the art. […] The TR-FRET signal can be measured using a high throughput microplate reader (e.g., Pherastar). […] The percent inhibition value at a single concentration of compound of the invention can be calculated relative to a control treated sample. […]
Measure: IC50

As a guide, the following entries are already answered.
[
  {
    "Compound": "O=C(c1ccc2nc(-c3ccc(F)cc3)c(-c3ccc(F)cc3)nc2c1)N1CCc2cnccc2C1",
    "IC50": "2000 to 10000 nM"
  },
  {
    "Compound": "O=C(NCCCn1ccnc1)c1ccc2nc(N3CCC(N4CCNCC4)CC3)c(-c3ccccc3)nc2c1",
    "IC50": "< 100 nM"
  },
  {
    "Compound": "C[C@@H]1CN(c2nc3ccc(C(=O)NCCCn4ccnc4)cc3nc2-c2ccccc2)C[C@H](C)O1",
    "IC50": "< 100 nM"
  },
  {
    "Compound": "O=C(c1ccc2nc(-c3ccc(F)cc3)c(-c3ccc(F)cc3)nc2c1)N1CCCC1Cc1cccnc1 (centres unmarked)",
    "IC50": "2000 to 10000 nM"
  },
  {
    "Compound": "O=C(NCCc1c[nH]cn1)c1ccc2nc(-c3ccc(F)cc3)c(-c3ccc(F)cc3)nc2c1",
    "IC50": "1000 to 2000 nM"
  }
]

// switching to the query compound
Please report IC50 for the following compound: `NC(=O)c1ccc(-c2nc3ccc(C(=O)NCCCn4ccnc4)cc3nc2-c2ccccc2)cc1`
100 to 500 nM

====

IC50 reference
Subject of test: UniProt P43490
Test details: NAMPT enzyme assay (TR-FRET/HTRF, BodiPY ligand, anti 6His-Tb)
Format: binding
Test parameters: NAMPT IC50 range class; read-out: IC50
Description: As discussed above, the invention provides compounds that are useful as inhibitors of the enzyme NAMPT. The NAMPT inhibition of a compound of the invention can be measured using a variety of methods known in the art. […] The TR-FRET signal can be measured using a high throughput microplate reader (e.g., Pherastar). […] The percent inhibition value at a single concentration of compound of the invention can be calculated relative to a control treated sample. […]

As a guide, the following entries are already answered.
[
  {
    "Mol": "CC(C)(C)OCc1nc2ccc(C(=O)NCCCc3ncc[nH]3)cc2nc1-c1ccc(F)cc1",
    "IC50": "100 to 500 nM"
  },
  {
    "Mol": "O=C(c1ccc2nc(-c3ccc(F)cc3)c(-c3ccc(F)cc3)nc2c1)N1CCc2[nH]ncc2C1",
    "IC50": "2000 to 10000 nM"
  },
  {
    "Mol": "CCCOc1nc2ccc(C(=O)NCCCc3ncc[nH]3)cc2nc1-c1ccc(F)cc1",
    "IC50": "< 100 nM"
  }
]

Please report IC50 for the following compound: `O=C(NCCCc1ncc[nH]1)c1ccc2nc(-n3ccnc3)c(-c3ccc(F)cc3)nc2c1`
500 to 1000 nM

====

Subject of test: hNAMPT protein (Homo sapiens (Human))
Test details: NAMPT enzyme assay (TR-FRET/HTRF, BodiPY ligand, anti 6His-Tb)
Assay type: binding
Test parameters: compound concentration 1 μM; read-out: Percent Inhibition
inhibition at 1 µM reference

[
  {
    "Mol": "O=C(NCCCc1ncc[nH]1)c1ccc2nc(OCC3CC4(COC4)C3)c(-c3ccc(F)cc3)nc2c1",
    "Subject of test": "hNAMPT protein (Homo sapiens (Human))",
    "inhibition at 1 µM": "> 99%"
  },
  {
    "Mol": "CC(C)Oc1nc2ccc(C(=O)NCCCc3ncc[nH]3)cc2nc1-c1cccs1",
    "Subject of test": "hNAMPT protein (Homo sapiens (Human))",
    "inhibition at 1 µM": "> 99%"
  }
]

// switching to the query molecule
Please report inhibition at 1 µM for the following molecule: `O=C(NCCCc1ncc[nH]1)c1ccc2nc(N3CCC(O)CC3)c(-c3ccc(Cl)cc3)nc2c1`
> 99%

====

Subject of test: hNAMPT protein (Homo sapiens (Human))
Test details: NAMPT enzyme assay (TR-FRET/HTRF, BodiPY ligand, anti 6His-Tb)
Assay type: binding
Test parameters: NAMPT inhibition, IC50 range class; read-out: IC50
pIC50: −log10 of the molar value.
pIC50 reference

[
  {
    "Compound": "O=C(NCCCc1ncc[nH]1)c1ccc2nc(-c3ccc(F)cc3)c(-c3ccc(Cl)c(F)c3)nc2c1 [Compound I-431]",
    "Value": "6.30 to 7.00"
  },
  {
    "Compound": "Cc1ccc(F)c(-c2nc3cc(C(=O)NCCCc4ncc[nH]4)ccc3nc2-c2ccc(F)cc2)c1 [Compound I-507]",
    "Value": "> 7.00"
  },
  {
    "Compound": "CC(C)c1nc2ccc(C(=O)NCCCc3ncc[nH]3)cc2nc1-c1ccc(F)cc1 [Compound I-444]",
    "Value": "6.30 to 7.00"
  },
  {
    "Compound": "N#CC1(COc2nc3ccc(C(=O)NCCCc4ncc[nH]4)cc3nc2-c2ccc(F)cc2)CCC1 [Compound I-407]",
    "Value": "> 7.00"
  },
  {
    "Compound": "O=C(NCCCc1ncc[nH]1)c1ccc2nc(-c3ccccc3)c(-c3cccs3)nc2c1 [Compound I-477]",
    "Value": "> 7.00"
  }
]

Fill: pIC50 (hNAMPT protein (Homo sapiens (Human))) for this compound O=C(NCCCc1ncc[nH]1)c1ccc2nc(OCCc3ccccc3)c(-c3ccc(F)cc3)nc2c1 [Compound I-420]
> 7.00

Fill: pIC50 (hNAMPT protein (Homo sapiens (Human))) for this compound CC(C)Oc1nc2ccc(C(=O)NCCCc3ncc[nH]3)cc2nc1-c1cc(C#N)ccc1F [Compound I-414]
> 7.00

Fill: pIC50 (hNAMPT protein (Homo sapiens (Human))) for this compound CN1CCCC(Oc2nc3ccc(C(=O)NCCCc4ncc[nH]4)cc3nc2-c2ccc(F)cc2)C1 (stereo not shown) [Compound I-423]
6.30 to 7.00

Fill: pIC50 (hNAMPT protein (Homo sapiens (Human))) for this compound COc1cccc(-c2nc3cc(C(=O)NCCCc4ncc[nH]4)ccc3nc2-c2ccc(F)cc2)n1 [Compound I-495]
> 7.00

Fill: pIC50 (hNAMPT protein (Homo sapiens (Human))) for this compound O=C(NCCCc1ncc[nH]1)c1ccc2nc(OCc3ccccc3)c(-c3ccc(F)cc3)nc2c1 [Compound I-439]
> 7.00

Fill: pIC50 (hNAMPT protein (Homo sapiens (Human))) for this compound Cc1nccn1-c1nc2ccc(C(=O)NCCCc3ncc[nH]3)cc2nc1-c1ccc(F)cc1 [Compound I-413]
6.30 to 7.00

Fill: pIC50 (hNAMPT protein (Homo sapiens (Human))) for this compound CN(C)C1CCC(Oc2nc3ccc(C(=O)NCCCc4ncc[nH]4)cc3nc2-c2ccc(F)cc2)CC1 (stereo not shown) [Compound I-456]
> 7.00

Fill: pIC50 (hNAMPT protein (Homo sapiens (Human))) for this compound CS(=O)(=O)CCOc1nc2ccc(C(=O)NCCCc3ncc[nH]3)cc2nc1-c1ccc(F)cc1 [Compound I-401]
6.30 to 7.00

====

Subject of test: hNAMPT protein (Homo sapiens (Human))
Test details: NAMPT enzyme assay (TR-FRET/HTRF, BodiPY ligand, anti 6His-Tb)
Format: binding
Test parameters: compound concentration 1 μM; read-out: Percent Inhibition
Measure: inhibition at 1 µM (%)
Use % as the unit, but write only the number.

As a guide, the following entries are already answered.
[
  {
    "Mol": "O=C(NCCCn1ccnc1)c1ccc2nc(-c3ccccc3)c(-c3ccsc3)nc2c1",
    "inhibition at 1 µM [%]": 89
  },
  {
    "Mol": "O=C(NCCCc1ncc[nH]1)c1ccc2nc(OCC3CCCCC3)c(-c3ccc(F)cc3)nc2c1",
    "inhibition at 1 µM [%]": 91
  },
  {
    "Mol": "NS(=O)(=O)c1cccc(-c2nc3cc(C(=O)NCCCc4ncc[nH]4)ccc3nc2-c2ccc(F)cc2)c1",
    "inhibition at 1 µM [%]": 89
  }
]

Fill: inhibition at 1 µM (hNAMPT protein (Homo sapiens (Human))) for this compound `O=C(NCCCn1ccnc1)c1ccc2nc(N3CCC(O)CC3)c(-c3ccccc3)nc2c1`
92

====

Subject of test: hNAMPT protein (Homo sapiens (Human))
Test details: NAMPT enzyme assay (TR-FRET/HTRF, BodiPY ligand, anti 6His-Tb)
Assay type: binding
Test parameters: NAMPT IC50 range class; read-out: IC50
IC50 reference

As a guide, the following entries are already answered.
[
  {
    "Compound": "CC(C)(C)OC(=O)N1CCN(C2CCN(c3nc4ccc(C(=O)NCCCn5ccnc5)cc4nc3-c3ccccc3)CC2)CC1 [Compound I-66]",
    "Subject of test": "hNAMPT protein (Homo sapiens (Human))",
    "Measure": "IC50",
    "Value": "< 100 nM"
  },
  {
    "Compound": "O=C(NCCCn1ccnc1)c1ccc2nc(-c3cccc(OC(F)(F)F)c3)c(-c3ccccc3)nc2c1 [Compound I-61]",
    "Subject of test": "hNAMPT protein (Homo sapiens (Human))",
    "Measure": "IC50",
    "Value": "100 to 500 nM"
  },
  {
    "Compound": "O=C(NCCn1ccnc1)c1ccc2nc(-c3ccc(F)cc3)c(-c3ccc(F)cc3)nc2c1 [Compound I-270]",
    "Subject of test": "hNAMPT protein (Homo sapiens (Human))",
    "Measure": "IC50",
    "Value": "1000 to 2000 nM"
  }
]

Please report IC50 for the following compound: O=C(NCCCc1ncc[nH]1)c1ccc2nc(-c3ccc(F)cc3)c(-c3cncs3)nc2c1 [Compound I-325]
< 100 nM

Please report IC50 for the following compound: Cn1cncc1CCNC(=O)c1ccc2nc(-c3ccc(F)cc3)c(-c3ccc(F)cc3)nc2c1 [Compound I-53]
100 to 500 nM

Please report IC50 for the following compound: CN1CCN(c2nc3ccc(C(=O)NCCCn4ccnc4)cc3nc2-c2ccccc2)CC1 [Compound I-128]
500 to 1000 nM

Please report IC50 for the following compound: O=C(NCCCn1ccnc1)c1ccc2nc(-c3cccc(Cl)c3)c(-c3ccccc3)nc2c1 [Compound I-209]
100 to 500 nM

Please report IC50 for the following compound: O=C(NCCCn1ccnc1)c1ccc2nc(-c3ccccc3)c(-c3ccncc3)nc2c1 [Compound I-251]
100 to 500 nM

Please report IC50 for the following compound: O=C(NCCCc1ncc[nH]1)c1ccc2nc(Cl)c(-c3ccc(Cl)cc3)nc2c1 [Compound I-50]
< 100 nM

Please report IC50 for the following compound: Cc1ccc(-c2nc3cc(C(=O)NCCCc4ncc[nH]4)ccc3nc2-c2ccc(F)cc2)cc1F [Compound I-311]
100 to 500 nM

Please report IC50 for the following compound: O=C(NCCCn1ccnc1)c1ccc2nc(-c3ccncc3)c(-c3ccccc3)nc2c1 [Compound I-5]
500 to 1000 nM
